Assignment: determine reported LD50 for the given compounds.
# measurement_notes: Test of ED50 and LD50 of anesthesia in mice (sequential method; disappearance of righting reflex or death)
# Assay type: in vivo
# condition_summary: mouse, in vivo; male KM mice, caudal vein injection over 10 s, death, n = 10-20; range in brackets
State just the number; it will be interpreted in mg/kg.

(Q) Request the reported LD50 associated with CCOC(=O)c1cncn1[C@H](C)c1ccccc1 [Etomidate]
(A) 50.3

(Q) Request the reported LD50 associated with "CCOC(=O)c1c(F)ncn1[C@H](C)c1ccccc1"
(A) 46.5

(Q) Request the reported LD50 associated with "COC(=O)c1c(F)ncn1[C@H](C)c1ccccc1"
(A) 48.4
